# ASSAY OVERVIEW: NFAT Signaling Pathway (AID 444);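 note: carbachol stimulus at about its EC50 of 1 µM final; % is set by controls: 0 for no effect and ±100 for the full control effect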
# MEASUREMENT SETUP: Jurkat NFAT-bla M1, carbachol, beta-lactamase ratio, 5 h; at 17.2 µM (top of the series) unless noted
Results filed as inconclusive are left out.
MEASUREMENT TYPE: activity change, negative = inhibition (%)
Hi! Could you send only the number? It should be in %, unit omitted.

Query: Given the entry CCN(CC)CCn1c(O)c(N=O)c2ccccc21 , report its measured activity change, negative = inhibition.
Reply: -17.1

Query: Ok, now Cn1c(=O)c2c3c(sc2n2c(SCC(N)=O)nnc12)CC(C(C)(C)C)CC3 (stereo not given)
Reply: 19.6

Query: Another compound to check: CC(=O)OCc1c(COC(C)=O)[n+](=O)c2ccccc2n1[O-]
Reply: -3.2

Query: Next record, please: C=CCc1c(C)c(C#N)c2nc3ccccc3n2c1N1CCN(C)CC1
Reply: 4.5

Query: What about this compound? COc1ccc(OC)c(C2/C(=C(/O)c3ccc(C)cc3)C(=O)C(=O)N2Cc2ccco2)c1 (stereo not given)
Reply: -17.7

----------
# Tested on: P93_24
# ASSAY OVERVIEW: qHTS profiling for inhibitors of Plasmodium falciparum proliferation (AID 504749); note: nearly all actives have a fitted effect of over 60% in size
# MEASUREMENT SETUP: P. falciparum in erythrocytes, SYBR Green DNA, 72 h; series mostly up to 28.7 µM
# Protocol: NIH National Institute of Allergy and Infectious Diseases [NIAID] NIH Chemical Genomics Center [NCGC] […] Because mature erythrocytes lack DNA, only Plasmodium-derived DNA is detected. NCGC Assay Protocol Summary: The SYBR Green viability assay was adapted from a method described previously (Plouffe et al., 2008). […] The following morning, fluorescence intensity at 485(14) nm excitation and 535(25) nm emission wavelengths was measured on an EnVision (Perkin Elmer) plate reader. […]
Results filed as inconclusive are left out. Active and inactive are the calls of the source. Calls follow the shape of the dose curve; as a rule, active = well fitted inhibition curve with a large enough effect; inconclusive = small, poorly fitted or top-dose-only effect; inactive = flat fitted curve, though single readings scatter.
Hi! Could you answer with just one of these? 1 = active, -1 = inactive

Past entries and their recorded results:
CC(=O)NC[C@@H]1CN(c2ccc(N3CCOCC3)c(F)c2)C(=O)O1; -1
C/C(=C(/CCO)SS/C(CCO)=C(\C)N(C=O)Cc1cnc(C)nc1N)N(C=O)Cc1cnc(C)nc1N; -1
O=c1ccn(C2OC(COP(=O)(O)OC3C(CO)OC(n4ccc(=O)[nH]c4=O)C3O)C(O)C2O)c(=O)[nH]1 (configuration not stated); -1
OCCN1CC(O)C(O)C(O)C1CO (configuration not stated); -1
CCCC[C@H](O)c1ccccc1; -1

Query: Look up the recorded call for CCC(C)C(N)C(=O)O (configuration not stated) in this test.
Reply: -1

Query: Thanks! And CC(=O)OCC(=O)[C@@]1(O)CCC2C3C[C@H](C)C4=CC(=O)C=CC4(C)C3C(O)CC21C (some centres not stated) ?
Reply: -1

Query: Would you kindly repeat that for CC1(Cn2ccnn2)[C@H](C(=O)O)N2C(=O)C[C@H]2S1(=O)=O (some centres not stated) ?
Reply: -1

Query: Again, but for CCCCCOC(=O)Nc1nc(=O)n(C2O[C@H](C)[C@@H](O)[C@@H]2O)cc1F (some centres not stated)
Reply: -1

Query: Now consider CC(c1ncncc1F)[C@](O)(Cn1cncn1)c1ccc(F)cc1F (some centres not stated) and answer again.
Reply: -1

Query: Also, CCOC(=O)C(CCc1ccccc1)NC(C)C(=O)N1Cc2cc(OC)c(OC)cc2CC1C(=O)O (configuration not stated) please.
Reply: 1

Query: Ok, now Cc1cn([C@H]2CC(F)[C@@H](CO)O2)c(=O)[nH]c1=O (some centres not stated)
Reply: -1

Query: Same lookup for CNC(=O)C(N)CSC(C)C1=C(C)c2cc3[n-]c(cc4nc(cc5[n-]c(cc1n2)c(C)c5CCC(=O)O)C(CCC(=O)O)=C4C)c(C)c3C(C)SCC(N)C(=O)NC.[Fe+2] (configuration not stated) , please.
Reply: -1

----------
# System: ATS189
# ASSAY OVERVIEW: qHTS profiling for inhibitors of Plasmodium falciparum proliferation (AID 504749); note: nearly all actives have a fitted effect of over 60% in size; note: potency is the fitted concentration of half-maximal effect
# MEASUREMENT SETUP: P. falciparum in erythrocytes, SYBR Green DNA, 72 h; series mostly up to 28.7 µM
Inconclusive results are not listed. Active and inactive are the calls of the source. Calls come from the whole dose curve; as a rule, active = well fitted inhibition curve with a large enough effect; inconclusive = small, poorly fitted or top-dose-only effect; inactive = flat fitted curve, though single readings scatter.
MEASUREMENT TYPE: Potency

OCC(O)C(O)C(O)C(O)CO (stereo not given); inactive
CC1=C[C@@H](O)CC(C)(C)[C@@H]1/C=C/C(C)=C/C=C/C(C)=C/C=C/C=C(C)/C=C/C=C(C)/C=C/C1=C(C)C[C@H](O)CC1(C)C; inactive
CCCCCCCCCCCC(=O)OCC(O)C1OCC(O)C1O (stereo not given); inactive
Cc1cn([C@H]2CC(F)[C@@H](CO)O2)c(=O)[nH]c1=O (stereo not given in full); inactive

Query: Give ATS189 Potency for C[C@H](CN1c2ccccc2Sc2cccnc21)N(C)C
Reply: 5.01 µM (active)

----------
# TARGET ENTITY: Glucocorticoid receptor (Homo sapiens) (UniProt P04150)
# Sequence (P04150 whole entry, looked up): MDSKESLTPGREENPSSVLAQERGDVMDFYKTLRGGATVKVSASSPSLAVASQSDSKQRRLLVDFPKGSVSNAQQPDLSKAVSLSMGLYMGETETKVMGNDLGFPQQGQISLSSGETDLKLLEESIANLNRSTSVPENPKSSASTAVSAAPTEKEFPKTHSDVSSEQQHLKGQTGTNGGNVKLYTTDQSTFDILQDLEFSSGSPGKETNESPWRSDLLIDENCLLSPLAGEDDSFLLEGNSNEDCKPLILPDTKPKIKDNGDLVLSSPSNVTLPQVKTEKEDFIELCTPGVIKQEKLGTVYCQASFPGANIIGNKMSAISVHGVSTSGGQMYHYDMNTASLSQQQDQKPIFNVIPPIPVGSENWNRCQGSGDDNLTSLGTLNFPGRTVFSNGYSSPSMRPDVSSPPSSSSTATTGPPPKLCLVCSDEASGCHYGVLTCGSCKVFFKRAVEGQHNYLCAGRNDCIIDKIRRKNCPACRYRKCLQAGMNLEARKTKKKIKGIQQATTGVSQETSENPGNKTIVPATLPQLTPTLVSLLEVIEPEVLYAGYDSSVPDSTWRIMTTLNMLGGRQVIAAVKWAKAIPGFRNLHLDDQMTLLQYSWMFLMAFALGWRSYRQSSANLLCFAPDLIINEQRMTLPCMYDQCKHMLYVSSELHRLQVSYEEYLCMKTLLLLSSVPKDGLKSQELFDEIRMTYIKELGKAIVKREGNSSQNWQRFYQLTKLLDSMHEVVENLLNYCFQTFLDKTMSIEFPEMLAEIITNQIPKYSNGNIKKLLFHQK
# ASSAY OVERVIEW: GR-GFP Redistribution (AID 450); note: potency is the fitted concentration of half-maximal effect
# MEASUREMENT SETUP: U2OS GR-GFP nuclear translocation, laser cytometry, 2 h; series mostly up to 20.6 µM
Calls of active or inactive are those of the source.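 The calls were made as follows: active = compounds whose dose series gives a full or clear partial fitted curve of increased nuclear translocation; inconclusive = weak partial curve or effect only at the top dose; inactive = no dose-dependent translocation response.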
The following compounds are shown together with reported Potency values.

CSC1=C(C#N)C(C)CC(=O)N1 (stereo unspecified); > 20.6 µM (inactive)
COc1ccc(N2C(=O)CN=C2Nc2nc(C)cc(C)n2)cc1; > 20.6 µM (inactive)
Cc1coc2c(O)cc3c(c12)OC1(N2CCCCC2)C(=O)NCCCC31 (stereo unspecified); > 20.6 µM (inactive)
N#CCSc1nc2sc3c(c2c(=O)n1C1CCCCC1)CCCC3; > 20.6 µM (inactive)
Cc1cccc(C)c1N1C(=O)C2ON(c3ccccc3)C(c3ccncc3)C2C1=O (stereo unspecified); > 20.6 µM (inactive)
Cn1c(NCC(O)c2ccccc2)nc2c1c(=O)n(Cc1ccc(Cl)cc1)c(=O)n2C (stereo unspecified); > 20.6 µM (inactive)

Query: Data request, read-out Potency, for CN1C(=O)N(c2ccccc2)C(Nc2nncs2)C1(C)C (stereo unspecified)
Reply: > 20.6 µM (inactive)

Query: Item: CCN(CC)c1nc(C)c2c(c1C#N)CC(C)(C)OC2
Reply: > 20.6 µM (inactive)

Query: Try this compound too: N#CC1=C(N)N2C(=C(C#N)C1c1ccccc1)Sc1ccccc12 (stereo unspecified)
Reply: > 20.6 µM (inactive)

Query: Please answer likewise for CC[C@H](c1ccccc1)c1cc(C(C)(C)C)cc(C(C)(C)C)c1O
Reply: > 46 µM (inactive)

Query: Same for Cc1cc(=O)oc(C)c1C(=O)Nc1ccc2nsnc2c1
Reply: > 20.6 µM (inactive)

----------
# TARGET ENTITY: Muscarinic acetylcholine receptor M1 (Rattus norvegicus)
# ASSAY OVERVIEW: qHTS Assay for Antagonists of Acetylcholine Muscarinic M1 Receptor: Measurement of IP-One Response (AID 944); note: nearly all actives have a fitted effect of over 75% in size
# MEASUREMENT SETUP: CHO-M1 cells, IP-One HTRF, antagonist mode; series mostly up to 46.1 µM
Inconclusive results are not listed. Activity calls are given as the source filed them. The call rests on the fitted dose curve; in most records, active means well fitted inhibition curve with a large enough effect; inconclusive means small, poorly fitted or top-dose-only effect; inactive means no such curve, though single readings can be large or run the other way.
Would you mind answering with one of these outcomes? T for active, F for inactive

CN1CCN([C@@H]2Cc3ccccc3Sc3ccc(Cl)cc32)CC1; T

Query: Recorded test call requested for O=C1[C@@H]2C=CC=CC2=NC(=S)N1CCN1CCC(=C(c2ccc(F)cc2)c2ccc(F)cc2)CC1
Reply: F

Query: Now give it for O=c1[nH]c(=O)n([C@H]2C[C@H](O)[C@H](CO)O2)cc1/C=C\Br too.
Reply: F

Query: Subsequent entry: NC[C@@H]1O[C@@H](O[C@H]2[C@@H](O)[C@H](O[C@@H]3[C@H](O)[C@H](N)C[C@H](N)[C@H]3O[C@@H]3O[C@@H](CO)[C@H](O)[C@H](O)[C@@H]3N)O[C@H]2CO)[C@H](N)[C@H](O)[C@@H]1O
Reply: F

----------
# Test system: DIV30
# ASSAY OVERVIEW: qHTS profiling for inhibitors of Plasmodium falciparum proliferation (AID 504749); note: nearly all actives have a fitted effect of over 60% in size; note: potency is the fitted concentration of half-maximal effect
# MEASUREMENT SETUP: P. falciparum in erythrocytes, SYBR Green DNA, 72 h; series mostly up to 28.7 µM
Results filed as inconclusive are left out. Calls of active or inactive are those of the source. Calls follow the shape of the dose curve; as a rule, active = well fitted inhibition curve with a large enough effect; inconclusive = small, poorly fitted or top-dose-only effect; inactive = flat fitted curve, though single readings scatter.
MEASUREMENT TYPE: Potency

Some compounds with recorded Potency:
COC(=O)C1[C@@H](OC)C(OC(=O)COc2ccc(OC)cc2)C[C@@H]2CN3CCc4c([nH]c5cc(OC)ccc45)[C@H]3C[C@H]12 (stereo partly drawn); 8.49 µM (active)
C=CCN1CC(C(=O)N(CCCN(C)C)C(=O)NCC)CC2c3cccc4[nH]cc(c34)CC21 (stereo not drawn); inactive
CC(=O)O[C@]1(C(C)=O)CCC2C3CCC4=CC(=O)CCC4(C)C3(F)C(O)CC21C (stereo partly drawn); inactive
CC(=O)OCC(=O)[C@@]1(O)CCC2C3CCC4=CC(=O)C=CC4(C)C3C(O)C[C@]21C (stereo partly drawn); inactive
CC1(C)C2CC[C@]1(C)[C@@H](O)C2; inactive

Query: Under DIV30: Potency value of O=C1C(I)=CC(=C(c2cc(I)c(O)c(I)c2)c2ccccc2C(=O)O)C=C1I ?
Reply: inactive

Query: Same again, this time with COC1CC2CCC(C)[C@](O)(O2)C(=O)C(=O)N2CCCCC2C(=O)OC(C(C)CC2CCC(O)C(OC)C2)CC(=O)C(C)/C=C(/C)C(O)C(OC)C(=O)C(C)CC(C)C=CC=C/C=C\1C (stereo partly drawn)
Reply: 0.953 µM (active)

Query: Queued: CN1[C@H]2CC(OC(=O)[C@H](CO)c3ccccc3)C[C@H]1[C@H]1O[C@H]12 (stereo partly drawn)
Reply: inactive
